The measured values listed here are drawn from ChEMBL document CHEMBL4665827.

target: Tumor necrosis factor ligand superfamily member 11 (Homo sapiens) (UniProt O14788); assay: Inhibition of human RANKL-induced osteoclastogenesis in RANKL cultured mouse bone marrow cells assessed as reduction in RANKL/M-CSF-induced TRAP activity at 5 uM preincubated with RANKL for 1 hr followed by cell addition and subsequent media replenishment every 48 hrs for 4 days; type: cell-based; conditions: time 4.0 day
Sequence (O14788 140-317 limits assumed): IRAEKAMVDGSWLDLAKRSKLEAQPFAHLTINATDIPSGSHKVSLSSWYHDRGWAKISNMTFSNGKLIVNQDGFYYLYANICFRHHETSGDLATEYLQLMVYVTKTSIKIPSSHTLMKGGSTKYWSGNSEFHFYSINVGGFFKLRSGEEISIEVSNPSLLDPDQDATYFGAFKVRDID
Active and inactive are the calls of the source. The rule behind the calls is not given here.
Mark one answer only. Choices: active, inactive

O=C(c1cn(-c2cccc(C(F)(F)F)c2)c2ccccc12)N1CCN(C(=O)n2ccnc2)CC1; active
O=C(c1cccs1)N1CCN(C(=O)c2c[nH]c3ccc([N+](=O)[O-])cc23)CC1; inactive
O=C(c1coc2ccccc2c1=O)N1CCN(C(=O)c2cn(-c3cccc([N+](=O)[O-])c3)c3ccccc23)CC1; inactive

query: Identify the outcome logged in this assay for the compound shown: O=C(c1ccccc1F)N1CCN(C(=O)c2c[nH]c3ccc([N+](=O)[O-])cc23)CC1
result: active

query: How did this test come out for O=C(NCCCNC(=O)c1cn(S(=O)(=O)c2ccccc2)c2ccccc12)c1coc2ccccc2c1=O ?
result: inactive

query: So what was the verdict on O=C(c1coc2ccccc2c1=O)N1CCN(C(=O)c2cn(S(=O)(=O)c3ccccc3)c3ccccc23)CC1 in this test?
result: active
